- Test system: Pyricularia grisea
- TEST_SUMMARY: Antifungal activity against Magnaporthe grisea
- Type: functional
PROPERTY_MEASURED: MIC (µM)
Just the number in µM, nothing appended.

Answered cases to consult:
[[record]]
chemical_smiles = "CCCC[C@H](O)/C=C/C(=O)O[C@@H]1[C@@H](C)[C@@H]2OC(=O)C(C)=C[C@@]2(C)O[C@H]1C"
property_measured = "MIC"
unit_symbol = "µM"
recorded_number = 12.5

[[record]]
chemical_smiles = "CCCC[C@H](O)/C=C/C(=O)O[C@@H]1[C@@H](C)[C@@H]2OC(=O)[C@@H](C)[C@H](O)[C@@]2(C)O[C@H]1C"
property_measured = "MIC"
unit_symbol = "µM"
recorded_number = 100


// query Entry CCCCCC[C@H](O)/C=C/C(=O)O[C@@H]1[C@@H](C)[C@@H]2OC(=O)[C@H](C)[C@H](OC(C)=O)[C@@]2(C)O[C@H]1C has what MIC?
// result 12.5

// query Then CCCC[C@H](O)/C=C/C(=O)O[C@@H]1[C@@H](C)[C@@H]2OC(=O)[C@H](C)[C@H](O)[C@@]2(C)O[C@H]1C ?
// result 100

// query Note, next up: CCCC[C@H](O)/C=C/C(=O)O[C@@H]1[C@@H](C)[C@H](O)[C@@](C)([C@@H](O)[C@@H](C)C(=O)O)O[C@H]1C
// result 100

Reference for the values: ChEMBL document CHEMBL1157344
